Origin of measurements: patent US20240084003A1

Target: T1, human CD22, full length, on CHO-K1-human CD22 2C4 cells (human, UniProt P20273 20-847)
T1 construct: Full-length human CD22 (NCBI NP_001762.2) stably transfected into CHO-K1
T1 sequence: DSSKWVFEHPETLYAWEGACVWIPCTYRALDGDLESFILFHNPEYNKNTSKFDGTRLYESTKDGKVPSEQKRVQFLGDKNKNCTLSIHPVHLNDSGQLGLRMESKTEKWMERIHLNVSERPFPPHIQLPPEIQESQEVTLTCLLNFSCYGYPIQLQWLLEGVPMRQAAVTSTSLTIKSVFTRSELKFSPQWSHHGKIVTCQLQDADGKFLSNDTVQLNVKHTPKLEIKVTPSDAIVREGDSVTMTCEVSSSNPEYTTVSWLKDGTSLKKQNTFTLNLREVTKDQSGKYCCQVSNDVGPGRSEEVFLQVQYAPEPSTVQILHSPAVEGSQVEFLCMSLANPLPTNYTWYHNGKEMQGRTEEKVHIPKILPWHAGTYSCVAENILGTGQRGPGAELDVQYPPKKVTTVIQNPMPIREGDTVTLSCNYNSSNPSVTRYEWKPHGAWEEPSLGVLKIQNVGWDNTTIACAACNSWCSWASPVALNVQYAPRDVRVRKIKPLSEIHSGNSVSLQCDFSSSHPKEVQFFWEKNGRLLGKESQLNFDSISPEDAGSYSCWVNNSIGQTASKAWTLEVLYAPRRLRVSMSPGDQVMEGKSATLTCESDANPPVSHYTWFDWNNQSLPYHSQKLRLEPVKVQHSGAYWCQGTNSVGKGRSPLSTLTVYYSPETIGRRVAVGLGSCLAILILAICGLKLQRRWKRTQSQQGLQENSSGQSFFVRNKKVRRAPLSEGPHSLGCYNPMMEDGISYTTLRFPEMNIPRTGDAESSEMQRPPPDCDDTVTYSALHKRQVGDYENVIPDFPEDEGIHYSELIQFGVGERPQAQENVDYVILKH
Test: FACS, CHO-K1-human CD22 2C4 cells
measurement.type: Maximum mean fluorescence intensity (MFI)
// note: answer is a bare numeric in MFI

**Query** For F1.105.11 human-murine chimeric antibody (antibody, human IgG1, kappa, V domains shown, Chimeric, human IgG1 / kappa; VL tied by name) VH: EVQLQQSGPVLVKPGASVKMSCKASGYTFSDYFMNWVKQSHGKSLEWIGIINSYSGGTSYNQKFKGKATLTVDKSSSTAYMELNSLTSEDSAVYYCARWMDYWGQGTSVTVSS VL: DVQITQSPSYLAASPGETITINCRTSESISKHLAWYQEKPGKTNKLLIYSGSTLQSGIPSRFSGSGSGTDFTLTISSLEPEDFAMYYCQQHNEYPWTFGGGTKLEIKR , what is its reported Maximum mean fluorescence intensity?
**Result** 28300

**Query** Moving on to F1.7.6 human-murine chimeric antibody (antibody, human IgG1, kappa, V domains shown, Chimeric, human IgG1 / kappa; VL tied by name) VH: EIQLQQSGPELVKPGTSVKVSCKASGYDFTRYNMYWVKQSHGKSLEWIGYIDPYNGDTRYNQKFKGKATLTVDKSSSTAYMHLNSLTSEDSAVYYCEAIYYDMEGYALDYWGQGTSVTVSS VL: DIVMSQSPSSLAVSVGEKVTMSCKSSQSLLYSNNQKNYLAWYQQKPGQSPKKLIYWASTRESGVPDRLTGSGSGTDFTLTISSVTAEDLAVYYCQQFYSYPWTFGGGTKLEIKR
**Result** 29700

**Query** What would you report for F1.120.15 human-murine chimeric antibody (antibody, human IgG1, kappa, V domains shown, Chimeric, human IgG1 / kappa) VH: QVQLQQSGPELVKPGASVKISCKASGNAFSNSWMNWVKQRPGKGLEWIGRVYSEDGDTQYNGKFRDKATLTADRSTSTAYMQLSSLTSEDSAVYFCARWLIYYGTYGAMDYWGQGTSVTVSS VL: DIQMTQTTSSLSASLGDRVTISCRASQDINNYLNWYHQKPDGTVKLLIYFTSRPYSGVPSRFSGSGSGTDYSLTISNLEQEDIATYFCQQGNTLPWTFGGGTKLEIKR ?
**Result** 27900
